Hello, the source for this data is patent US20110071180A1, in case you need it.

The following molecules are shown together with reported pKi values.
- testSystem: human α4β2 nAChR subtype (Homo sapiens, UniProt P17787+P43681)
- Sequence (P43681 29-627 limits assumed): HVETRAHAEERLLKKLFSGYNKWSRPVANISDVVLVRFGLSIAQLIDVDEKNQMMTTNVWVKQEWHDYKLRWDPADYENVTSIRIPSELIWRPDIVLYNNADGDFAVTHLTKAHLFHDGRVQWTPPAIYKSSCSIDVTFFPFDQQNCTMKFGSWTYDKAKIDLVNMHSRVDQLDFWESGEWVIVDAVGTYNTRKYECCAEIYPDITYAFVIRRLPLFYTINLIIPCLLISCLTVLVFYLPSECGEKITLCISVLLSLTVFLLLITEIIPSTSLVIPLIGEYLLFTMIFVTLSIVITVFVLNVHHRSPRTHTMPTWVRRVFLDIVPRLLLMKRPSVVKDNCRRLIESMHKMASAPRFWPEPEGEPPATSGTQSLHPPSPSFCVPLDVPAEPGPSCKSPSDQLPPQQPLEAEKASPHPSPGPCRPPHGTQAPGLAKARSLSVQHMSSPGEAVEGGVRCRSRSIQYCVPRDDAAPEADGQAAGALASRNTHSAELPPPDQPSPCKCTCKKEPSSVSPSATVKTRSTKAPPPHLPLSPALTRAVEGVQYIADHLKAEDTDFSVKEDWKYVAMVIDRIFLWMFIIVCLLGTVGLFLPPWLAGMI
- Sequence (P17787 26-502): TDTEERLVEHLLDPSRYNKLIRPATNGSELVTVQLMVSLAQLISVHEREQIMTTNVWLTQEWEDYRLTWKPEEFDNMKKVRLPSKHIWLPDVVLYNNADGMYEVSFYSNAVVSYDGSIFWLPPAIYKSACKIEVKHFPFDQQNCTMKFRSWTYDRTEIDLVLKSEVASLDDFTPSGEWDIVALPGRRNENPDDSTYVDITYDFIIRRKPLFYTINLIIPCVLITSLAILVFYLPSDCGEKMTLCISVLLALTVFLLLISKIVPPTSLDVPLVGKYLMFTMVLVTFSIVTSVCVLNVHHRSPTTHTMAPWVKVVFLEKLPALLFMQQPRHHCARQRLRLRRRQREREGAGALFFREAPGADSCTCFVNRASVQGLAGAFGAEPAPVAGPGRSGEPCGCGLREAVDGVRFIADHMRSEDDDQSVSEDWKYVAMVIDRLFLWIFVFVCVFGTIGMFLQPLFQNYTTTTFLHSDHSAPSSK
- protocolText: Radioligand binding, [3H]nicotine, membranes from SH-EP1/human α4β2 clonal cells
- measurementConditions: [3H]nicotine 5 nM, SH-EP1/human α4β2 cell membranes
pKi: −log10 of the molar value.

molecule	pKi
CC1CC1C(=O)N1CC2CNCC2C1 (centres unmarked)	8.38
CCC(=O)N1CC2CNCC(C2)C1	7.98
O=C(Cc1cccnc1)N1CC2CNCC2C1 (centres unmarked)	6.31
O=C(CC1CC1)N1CC2CNCC2C1 (centres unmarked)	6.98
O=C([C@@H]1CC2C=CC1C2)N1CC2CNCC2C1 (some centres unmarked)	8.47
CCCC(=O)N1CC2CNCC(C2)C1	8.54
O=C([C@H]1C[C@@H]1F)N1CC2CNCC2C1 (some centres unmarked) [Example 10-29]	8.23
CC1(C)C(C(=O)N2CC3CNCC(C3)C2)C1(C)C	7.55
O=C(N1CC2CNCC2C1)C1(O)CC1 (centres unmarked)	6.46
O=C(C1CCCC1)N1CC2CNCC2C1 (centres unmarked)	7.53
COCCC(=O)N1CC2CNCC2C1 (centres unmarked)	6.66

###

The following compounds are shown together with reported Ki values.
- testSystem: rat α4β2 nAChR subtype (Rattus norvegicus, UniProt P09483+P12390)
- Construct: The cerebral cortex was removed and placed in 20 volumes (weight:volume) of ice-cold preparative buffer
- Sequence (P09483 31-630): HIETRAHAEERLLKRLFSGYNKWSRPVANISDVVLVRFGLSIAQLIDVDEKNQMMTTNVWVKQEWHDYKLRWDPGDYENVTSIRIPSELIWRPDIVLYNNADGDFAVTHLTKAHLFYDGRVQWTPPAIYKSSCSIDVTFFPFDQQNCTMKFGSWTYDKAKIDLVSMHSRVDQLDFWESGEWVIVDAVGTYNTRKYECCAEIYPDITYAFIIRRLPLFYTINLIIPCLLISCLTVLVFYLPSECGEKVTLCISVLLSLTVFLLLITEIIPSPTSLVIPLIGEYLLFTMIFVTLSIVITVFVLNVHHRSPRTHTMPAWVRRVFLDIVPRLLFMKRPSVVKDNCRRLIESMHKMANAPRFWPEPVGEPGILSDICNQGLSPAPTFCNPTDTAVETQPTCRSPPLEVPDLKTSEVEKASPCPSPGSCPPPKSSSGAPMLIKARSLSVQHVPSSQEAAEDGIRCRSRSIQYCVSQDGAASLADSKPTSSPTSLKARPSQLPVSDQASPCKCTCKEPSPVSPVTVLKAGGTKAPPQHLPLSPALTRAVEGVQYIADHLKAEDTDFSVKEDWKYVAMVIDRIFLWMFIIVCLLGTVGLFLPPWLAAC
- Sequence (P12390 25-500): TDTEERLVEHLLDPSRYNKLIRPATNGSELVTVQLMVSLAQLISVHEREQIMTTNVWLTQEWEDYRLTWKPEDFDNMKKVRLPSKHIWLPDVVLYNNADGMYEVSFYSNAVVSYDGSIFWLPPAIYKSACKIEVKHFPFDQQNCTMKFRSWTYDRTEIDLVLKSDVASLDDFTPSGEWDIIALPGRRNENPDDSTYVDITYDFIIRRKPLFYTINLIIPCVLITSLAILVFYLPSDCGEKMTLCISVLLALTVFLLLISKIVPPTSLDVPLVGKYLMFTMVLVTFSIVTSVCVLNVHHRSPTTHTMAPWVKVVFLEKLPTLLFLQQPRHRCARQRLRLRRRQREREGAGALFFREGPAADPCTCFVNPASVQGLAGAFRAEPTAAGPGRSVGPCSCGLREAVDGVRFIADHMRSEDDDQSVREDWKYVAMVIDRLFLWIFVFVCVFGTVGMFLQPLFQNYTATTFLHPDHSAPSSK
- protocolText: Radioligand binding, [3H]nicotine, rat cortex membranes
- measurementConditions: [3H]nicotine 5 nM
quantityKind: Ki (nM)

compound	testSystem	obsValue
O=C(C1CCCC1)N1CC2CNCC2C1 (centres unmarked)	rat α4β2 nAChR subtype (Rattus norvegicus, UniProt P09483+P12390)	27.7
O=C([C@H]1C[C@H]1F)N1CC2CNCC2C1 (some centres unmarked)	rat α4β2 nAChR subtype (Rattus norvegicus, UniProt P09483+P12390)	9.7
O=C(C1CC(F)(F)C1)N1CC2CNCC2C1 (centres unmarked)	rat α4β2 nAChR subtype (Rattus norvegicus, UniProt P09483+P12390)	20.3
CC1(C)CC1C(=O)N1CC2CNCC2C1 (centres unmarked)	rat α4β2 nAChR subtype (Rattus norvegicus, UniProt P09483+P12390)	7.7
CC(C)=CC(=O)N1CC2CNCC(C2)C1	rat α4β2 nAChR subtype (Rattus norvegicus, UniProt P09483+P12390)	25.9

###

- testSystem: rat α4β2 nAChR subtype (Rattus norvegicus, UniProt P09483+P12390)
- Construct: The cerebral cortex was removed and placed in 20 volumes (weight:volume) of ice-cold preparative buffer
- protocolText: Radioligand binding, [3H]nicotine, rat cortex membranes
- measurementConditions: [3H]nicotine 5 nM
pKi: −log10 of the molar value.
The following compounds are shown together with reported pKi values.

compound	pKi
O=C([C@@H]1CC2C=CC1C2)N1CC2CNCC(C2)C1 (stereo partly shown)	8.31
O=C(C1CC=CCC1c1cccnc1)N1CC2CNCC2C1 (stereo not shown)	6.00
CC1(C(=O)N2CC3CNCC3C2)CC1 (stereo not shown)	6.86
O=C(CCF)N1CC2CNCC2C1 (stereo not shown)	7.65
O=C(CS(=O)(=O)c1ccccc1)N1CC2CNCC(C2)C1	6.02
O=C(C1CC=CC1)N1CC2CNCC(C2)C1	7.59
O=C1CCCC2=C1CC(C(=O)N1CC3CNCC3C1)CC2 (stereo not shown)	6.43
O=C(C1C[C@H]2C=C[C@@H]1CC2)N1CC2CNCC(C2)C1 (stereo partly shown)	6.59
O=C([C@H]1C[C@@H]1F)N1CC2CNCC(C2)C1 [Example 10-87]	7.94
O=C(C1C2CCCCC21)N1CC2CNCC2C1 (stereo not shown)	7.59
